# assayProtocol: Particle size, PDI and encapsulation efficiency of LNP@mRNA
# Assay type: physicochemical
# experimentalConditions: Example 26: LNP@mRNA of compound, cholesterol, DOPE, PEG-DMG 35:46.5:16:2.5; luciferase mRNA
quantityMeasured: Encapsulation efficiency (%)

compound	endpointUnit	number
CCCCCCC(CCCC)C(=O)OCCN(CCCN(C)CCCN(CCOC(=O)C(CCCC)CCCCCC)CCOC(=O)C(CCCC)CCCCCC)CCOC(=O)C(CCCC)CCCCCC (centres unmarked) [Compound 2]	%	86
CCCCCCCCC(CCCCCC)C(=O)OCCN(CCCN(C)CCCN(CCOC(=O)C(CCCCCC)CCCCCCCC)CCOC(=O)C(CCCCCC)CCCCCCCC)CCOC(=O)C(CCCCCC)CCCCCCCC (centres unmarked) [Compound 1]	%	96
CCCCCCCCC(CCCCCC)C(=O)OCCCCCCN(CCCCCCOC(=O)C(CCCCCC)CCCCCCCC)CCCN(C)CCCN(CCCCCCOC(=O)C(CCCCCC)CCCCCCCC)CCCCCCOC(=O)C(CCCCCC)CCCCCCCC (centres unmarked) [Compound 17]	%	96
CCCCCCC(CCCC)C(=O)OCCCCCCN(CCCCCCOC(=O)C(CCCC)CCCCCC)CCCN(C)CCCN(CCCCCCOC(=O)C(CCCC)CCCCCC)CCCCCCOC(=O)C(CCCC)CCCCCC (centres unmarked) [Compound 27]	%	57
CCCCCCC(CCCC)C(=O)OCCCCOC(=O)CCN(CCCN(C)CCCN(CCC(=O)OCCCCOC(=O)C(CCCC)CCCCCC)CCC(=O)OCCCCOC(=O)C(CCCC)CCCCCC)CCC(=O)OCCCCOC(=O)C(CCCC)CCCCCC (centres unmarked) [Compound 33]	%	96

###

# assayProtocol: Particle size, PDI and encapsulation efficiency of LNP@mRNA
# Assay type: physicochemical
# experimentalConditions: Example 26: LNP@mRNA of compound, cholesterol, DOPE, PEG-DMG 35:46.5:16:2.5; luciferase mRNA

compound	Particle size
CCCCCCCCC(CCCCCC)C(=O)OCCN(CCCN(C)CCCN(CCOC(=O)C(CCCCCC)CCCCCCCC)CCOC(=O)C(CCCCCC)CCCCCCCC)CCOC(=O)C(CCCCCC)CCCCCCCC (centres unmarked)	95 nm
CCCCCCCCC(CCCCCC)C(=O)OCCCCCCN(CCCCCCOC(=O)C(CCCCCC)CCCCCCCC)CCCN(C)CCCN(CCCCCCOC(=O)C(CCCCCC)CCCCCCCC)CCCCCCOC(=O)C(CCCCCC)CCCCCCCC (centres unmarked)	184 nm
CCCCCCC(CCCC)C(=O)OCCCCCCN(CCCCCCOC(=O)C(CCCC)CCCCCC)CCCN(C)CCCN(CCCCCCOC(=O)C(CCCC)CCCCCC)CCCCCCOC(=O)C(CCCC)CCCCCC (centres unmarked)	90 nm
CCCCCCC(CCCC)C(=O)OCCCCOC(=O)CCN(CCCN(C)CCCN(CCC(=O)OCCCCOC(=O)C(CCCC)CCCCCC)CCC(=O)OCCCCOC(=O)C(CCCC)CCCCCC)CCC(=O)OCCCCOC(=O)C(CCCC)CCCCCC (centres unmarked)	86 nm
CCCCCCC(CCCC)C(=O)OCCN(CCCN(C)CCCN(CCOC(=O)C(CCCC)CCCCCC)CCOC(=O)C(CCCC)CCCCCC)CCOC(=O)C(CCCC)CCCCCC (centres unmarked)	84 nm

###

Form field: PDI (one value per entry).
# assayProtocol: Particle size, PDI and encapsulation efficiency of LNP@mRNA
# Format: physicochemical
# experimentalConditions: Example 26: LNP@mRNA of compound, cholesterol, DOPE, PEG-DMG 35:46.5:16:2.5; luciferase mRNA

compound	PDI
CCCCCCCCC(CCCCCC)C(=O)OCCN(CCCN(C)CCCN(CCOC(=O)C(CCCCCC)CCCCCCCC)CCOC(=O)C(CCCCCC)CCCCCCCC)CCOC(=O)C(CCCCCC)CCCCCCCC (centres unmarked) [Compound 1]	0.14
CCCCCCC(CCCC)C(=O)OCCCCOC(=O)CCN(CCCN(C)CCCN(CCC(=O)OCCCCOC(=O)C(CCCC)CCCCCC)CCC(=O)OCCCCOC(=O)C(CCCC)CCCCCC)CCC(=O)OCCCCOC(=O)C(CCCC)CCCCCC (centres unmarked) [Compound 33]	0.11
CCCCCCCCC(CCCCCC)C(=O)OCCCCCCN(CCCCCCOC(=O)C(CCCCCC)CCCCCCCC)CCCN(C)CCCN(CCCCCCOC(=O)C(CCCCCC)CCCCCCCC)CCCCCCOC(=O)C(CCCCCC)CCCCCCCC (centres unmarked) [Compound 17]	0.19
CCCCCCC(CCCC)C(=O)OCCCCCCN(CCCCCCOC(=O)C(CCCC)CCCCCC)CCCN(C)CCCN(CCCCCCOC(=O)C(CCCC)CCCCCC)CCCCCCOC(=O)C(CCCC)CCCCCC (centres unmarked) [Compound 27]	0.21
CCCCCCC(CCCC)C(=O)OCCN(CCCN(C)CCCN(CCOC(=O)C(CCCC)CCCCCC)CCOC(=O)C(CCCC)CCCCCC)CCOC(=O)C(CCCC)CCCCCC (centres unmarked) [Compound 2]	0.20
